Entries and their caspase 0.3 μM values follow.
System: Caspase 3
test-name: Caspase 3 detection assay in SJSA1 cells
Assay type: cell-based
reported-conditions: 0.3 μM, SJSA1, 48 h, Caspase 3 activation over DMSO-treated cells
Bridge positions count the residues as written; N and C are the ends. Square brackets hold non-standard residues; d marks the D form. Peptide text beside a SMILES is read from it. R8 = C=CCCCCCC[C@@](C)(N)C(=O)O; S5 = C=CCCC[C@](C)(N)C(=O)O

Below: 3 compounds and their reported caspase 0.3 μM.
# compound, caspase 0.3 μM
data = [
    ("CC(=O)N[C@@H](CC(C)C)C(=O)N[C@H](C(=O)N[C@@H](Cc1ccccc1)C(=O)N[C@]1(C)CCCCCC/C=C/CCC[C@@](C)(C(=O)N[C@@H](C)C(=O)N[C@@H](C)C(=O)N[C@@H](C)C(=O)N[C@@H](C)C(=O)N[C@@H](C)C(=O)N[C@H](C)C(N)=O)NC(=O)[C@H](CC(C)C)NC(=O)[C@H](CCC(N)=O)NC(=O)[C@H](C)NC(=O)[C@H](Cc2c[nH]c3ccccc23)NC(=O)[C@H](Cc2ccc(O)cc2)NC(=O)[C@H](CCC(=O)O)NC1=O)[C@@H](C)O", 4.5),
    ("CC(=O)N[C@@H](CC(C)C)C(=O)N[C@H](C(=O)N[C@@H](Cc1ccccc1)C(=O)N[C@]1(C)CCCCCCC=CCCC[C@@](C)(C(=O)N[C@@H](CO)C(=O)N[C@@H](C)C(=O)N[C@@H](C)C(N)=O)NC(=O)[C@H](C2CCCC2)NC(=O)[C@H](CCC(N)=O)NC(=O)[C@H](C)NC(=O)[C@H](Cc2c[nH]c3ccccc23)NC(=O)[C@H](Cc2ccc(O)cc2)NC(=O)[C@H](CCC(=O)O)NC1=O)[C@@H](C)O (single isomer, unassigned)", 1),
    ("CC(=O)N[C@@H](CC(C)C)C(=O)N[C@H](C(=O)N[C@@H](Cc1ccccc1)C(=O)N[C@]1(C)CCCCCCC=CCCC[C@@](C)(C(=O)N[C@@H](CO)C(=O)N[C@@H](Cc2c[nH]c3ccccc23)C(=O)N[C@@H](C)C(N)=O)NC(=O)[C@H](CC(C)C)NC(=O)[C@H](CCC(N)=O)NC(=O)[C@H](C)NC(=O)[C@H](Cc2c[nH]c3ccccc23)NC(=O)[C@H](Cc2ccc(O)cc2)NC(=O)[C@H](C)NC1=O)[C@@H](C)O (single isomer, unassigned)", 2),
]

Input line: Which caspase 0.3 μM reading was recorded for the compound CC(=O)N[C@@H](CCC(=O)O)C(=O)N[C@H](C(=O)N[C@@H](Cc1ccccc1)C(=O)N[C@]1(C)CCCCCCC=CCCC[C@@](C)(C(=O)N[C@@H](CO)C(=O)N[C@@H](C)C(=O)N[C@@H](C)C(N)=O)NC(=O)[C@H](CC(C)C)NC(=O)[C@H](CCC(N)=O)NC(=O)[C@H](C)NC(=O)[C@H](Cc2c[nH]c3ccccc23)NC(=O)[C@H](Cc2ccc(O)cc2)NC(=O)[C@H](CCC(=O)O)NC1=O)[C@@H](C)O [compound 161] (Ac-ETF[R8]EYWAQL[S5]SAA-NH2; staple 4-11) ?
Output line: 2

Input line: Which caspase 0.3 μM reading was recorded for the compound CC[C@H](C)[C@H](NC(C)=O)C(=O)N[C@H](C(=O)N[C@@H](Cc1ccccc1)C(=O)N[C@]1(C)CCCCCCC=CCCC[C@@](C)(C(=O)N[C@@H](C)C(=O)N[C@@H](C)C(=O)N[C@H](C(=O)N[C@H](C)C(N)=O)[C@@H](C)CC)NC(=O)[C@H](CC(C)C)NC(=O)[C@H](CCC(N)=O)NC(=O)[C@H](C(C)C)NC(=O)[C@H](Cc2c[nH]c3ccccc23)NC(=O)[C@H](Cc2ccc(O)cc2)NC(=O)[C@H](Cc2ccccc2)NC1=O)[C@@H](C)O [compound 177] (Ac-ITF[R8]FYWVQL[S5]AAI[dA]-NH2; staple 4-11) ?
Output line: 1

----------
Tested on: SJSA-1 cells
test-name: Cell lysis by peptidomimetic macrocycles (LDH release)
Type: cell-based
reported-conditions: 25 μM, SJSA-1, 1 h
Bridge positions count the residues as written; N and C are the ends. Square brackets hold non-standard residues; d marks the D form. Peptide text beside a SMILES is read from it. R8 = C=CCCCCCC[C@@](C)(N)C(=O)O; S5 = C=CCCC[C@](C)(N)C(=O)O
Entries and their 25 μM % Lysed cells (1 h LDH) values follow.
State the answer as a number, implicitly in %.

# compound, 25 μM % Lysed cells (1 h LDH) [%]
records = [
    ("CC[C@H](C)[C@H](NC(=O)[C@H](C)NC(=O)[C@H](C)NC(=O)[C@]1(C)CCC/C=C/CCCCCC[C@@](C)(NC(=O)[C@H](Cc2ccccc2)NC(=O)[C@@H](NC(=O)[C@H](CC(C)C)NC(C)=O)[C@@H](C)O)C(=O)N[C@@H](C)C(=O)N[C@@H](Cc2ccc(O)cc2)C(=O)N[C@@H](Cc2c[nH]c3ccccc23)C(=O)N[C@@H](C)C(=O)N[C@@H](CCC(N)=O)C(=O)N[C@@H](CC(C)C)C(=O)N1)C(=O)N[C@H](C)C(N)=O", 0),
]

Input line: Which 25 μM % Lysed cells (1 h LDH) reading was recorded for the compound CC(=O)N[C@@H](CC(C)C)C(=O)N[C@H](C(=O)N[C@@H](Cc1ccccc1)C(=O)N[C@]1(C)CCCCCCC=CCCC[C@@](C)(C(=O)N[C@@H](CO)C(=O)N[C@@H](C)C(=O)N[C@@H](C)C(N)=O)NC(=O)[C@H](CC(C)C)NC(=O)[C@H](C)NC(=O)[C@H](C)NC(=O)[C@H](Cc2c[nH]c3ccccc23)NC(=O)[C@H](Cc2c[nH]cn2)NC(=O)[C@H](C)NC1=O)[C@@H](C)O [compound 197] (Ac-LTF[R8]AHWAAL[S5]SAA-NH2; staple 4-11) ?
Output line: −1

----------
Entries and their 50 μM % Lysed cells (1 h LDH) values follow.
Test system: SJSA-1 cells
test-name: Cell lysis by peptidomimetic macrocycles (LDH release)
Assay type: cell-based
reported-conditions: 50 μM, SJSA-1, 1 h
Bridge positions count the residues as written; N and C are the ends. Square brackets hold non-standard residues; d marks the D form. Peptide text beside a SMILES is read from it. R8 = C=CCCCCCC[C@@](C)(N)C(=O)O; Cba = N[C@@H](CC1CCC1)C(=O)O; S5 = C=CCCC[C@](C)(N)C(=O)O
State the answer as a number, implicitly in %.

# molecule, 50 μM % Lysed cells (1 h LDH) / %
data = [
    ("CC[C@H](C)[C@H](NC(=O)[C@H](C)NC(=O)[C@H](C)NC(=O)[C@]1(C)CCCC=CCCCCCC[C@@](C)(NC(=O)[C@H](Cc2ccccc2)NC(=O)[C@@H](NC(=O)[C@H](CC(C)C)NC(C)=O)[C@@H](C)O)C(=O)N[C@@H](CCC(=O)O)C(=O)N[C@@H](Cc2ccc(O)cc2)C(=O)N[C@@H](Cc2c[nH]c3ccccc23)C(=O)N[C@@H](C)C(=O)N[C@@H](CCC(N)=O)C(=O)N[C@@H](CC2CCC2)C(=O)N1)C(=O)N[C@H](C)C(N)=O [compound 247] (Ac-LTF[R8]EYWAQ[Cba][S5]AAI[dA]-NH2; staple 4-11)", 4),
]

Input line: Which 50 μM % Lysed cells (1 h LDH) reading was recorded for the molecule CC(=O)N[C@@H](CC(C)C)C(=O)N[C@H](C(=O)N[C@@H](Cc1ccccc1)C(=O)N[C@]1(C)CCCCCCC=CCCC[C@@](C)(C(=O)N[C@@H](CO)C(=O)N[C@H](C(=O)N[C@@H](C)C(N)=O)C(C)C)NC(=O)[C@H](CC(C)C)NC(=O)[C@H](CCC(N)=O)NC(=O)[C@H](C)NC(=O)[C@H](Cc2c[nH]c3ccccc23)NC(=O)[C@H](Cc2ccc(O)cc2)NC(=O)[C@H](C(C)C)NC1=O)[C@@H](C)O (single isomer, unassigned) [compound 139] ?
Output line: −1

----------
System: SJSA-1 cells
test-name: Cell lysis by peptidomimetic macrocycles (LDH release)
Format: cell-based
reported-conditions: 50 μM, SJSA-1, 1 h
Experimental: SJSA-1 cells were plated out one day in advance in clear flat-bottom plates (Costar, catalog number 353072) at 7500 cells/well with 100 ul/well of growth media, leaving row H columns 10-12 empty for media alone. On the day of the assay, media was exchanged with RPMI 1% FBS media, 90 uL of media per well. […] Cell plates were incubated for 1 hour at 37° C. […] LDH release is measured using the LDH cytotoxicity assay kit from Caymen, catalog #1000882.
Bridge positions count the residues as written; N and C are the ends. Square brackets hold non-standard residues; d marks the D form. Peptide text beside a SMILES is read from it. R8 = C=CCCCCCC[C@@](C)(N)C(=O)O; S5 = C=CCCC[C@](C)(N)C(=O)O
assay-metric: 50 μM % Lysed cells (1 h LDH)
Number plus unit, in that order.

# molecule, 50 μM % Lysed cells (1 h LDH)
data = [
    ("CC(=O)N[C@@H](CC(C)C)C(=O)N[C@H](C(=O)N[C@@H](Cc1ccccc1)C(=O)N[C@]1(C)CCCCCCC=CCCC[C@@](C)(C(=O)N[C@@H](CO)C(=O)N[C@@H](C)C(=O)N[C@@H](C)C(N)=O)NC(=O)[C@H](CC(C)C)NC(=O)[C@H](C)NC(=O)[C@H](C)NC(=O)[C@H](Cc2c[nH]c3ccccc23)NC(=O)[C@H](Cc2c[nH]cn2)NC(=O)[C@H](C)NC1=O)[C@@H](C)O [compound 197] (Ac-LTF[R8]AHWAAL[S5]SAA-NH2; staple 4-11)", "−2%"),
]

Please turn your attention to the following entry.
Input line: Which 50 μM % Lysed cells (1 h LDH) reading was recorded for the molecule CC(=O)N[C@@H](CC(C)C)C(=O)N[C@H](C(=O)N[C@@H](Cc1ccccc1)C(=O)N[C@]1(C)CCCCCCC=CCCC[C@@](C)(C(=O)N[C@@H](C)C(=O)N[C@@H](C)C(=O)N[C@@H](Cc2c[nH]c3ccccc23)C(=O)N[C@H](C)C(N)=O)NC(=O)[C@H](CC(C)C)NC(=O)[C@H](CCC(N)=O)NC(=O)[C@H](C)NC(=O)[C@H](Cc2c[nH]c3ccccc23)NC(=O)[C@H](Cc2ccc(O)cc2)NC(=O)[C@H](C)NC1=O)[C@@H](C)O [compound 211] (Ac-LTF[R8]AYWAQL[S5]AAW[dA]-NH2; staple 4-11) ?
Output line: 1%

Provenance of the data: patent US20200369728A1
